Reported pIC50 by item:
# System: DU-145
# assayProtocol: Cytotoxicity against human DU-145 cells assessed as reduction in cell growth measured for 48 hrs by MTT assay
# Type: functional, cell-based
# runParameters: DU-145, 48 h
pIC50: −log10 of the molar value.
outcomeMeasure: pIC50

[[record]]
molecule = "O=C1N(c2cccnc2)c2[nH]c(=O)[nH]c(=O)c2C12c1ccccc1Nc1c2[nH]c(=O)[nH]c1=O (stereo not drawn)"
measvalue = 4.83

[[record]]
molecule = "O=C1N(c2ccc(Cl)cc2)c2[nH]c(=O)[nH]c(=O)c2C12c1ccccc1Nc1c2[nH]c(=O)[nH]c1=O (stereo not drawn)"
measvalue = 4.78

[[record]]
molecule = "O=C1N(c2ccccc2S)c2[nH]c(=O)[nH]c(=O)c2C12c1ccccc1Nc1c2[nH]c(=O)[nH]c1=O (stereo not drawn)"
measvalue = 4.75


###

# System: PC-3
# assayProtocol: Cytotoxicity against human PC-3 cells assessed as reduction in cell growth measured for 48 hrs by MTT assay
# Assay type: functional, cell-based
# runParameters: PC-3, 48 h
pIC50: −log10 of the molar value.
outcomeMeasure: pIC50

[[record]]
compound = "O=C1N(c2cccnc2)c2[nH]c(=O)[nH]c(=O)c2C12c1ccccc1Nc1c2[nH]c(=O)[nH]c1=O (stereo not drawn)"
outcomemeasure = "pIC50"
measvalue = 4.81

[[record]]
compound = "O=C1N(c2ccccc2S)c2[nH]c(=O)[nH]c(=O)c2C12c1ccccc1Nc1c2[nH]c(=O)[nH]c1=O (stereo not drawn)"
outcomemeasure = "pIC50"
measvalue = 4.74

[[record]]
compound = "O=C1N(c2ccc(Cl)cc2)c2[nH]c(=O)[nH]c(=O)c2C12c1ccccc1Nc1c2[nH]c(=O)[nH]c1=O (stereo not drawn)"
outcomemeasure = "pIC50"
measvalue = 4.70


###

# Test system: MCF7
# assayProtocol: Cytotoxicity against human MCF7 cells assessed as reduction in cell viability incubated for 24 hrs by MTT assay
# Type: functional, cell-based
# runParameters: MCF7, 24 h
IC50 reference
outcomeMeasure: IC50 (µg/mL)

[[record]]
molecule = "N#CC1=C(N)Oc2c(cc(Cl)c3cccnc23)C1c1ccc(Br)cc1 (stereo not drawn)"
valueunits = "µg/mL"
measvalue = 0.99

[[record]]
molecule = "N#CC1=C(N)Oc2c(ccc3cccnc23)C1c1ccc(Br)cc1 (stereo not drawn)"
valueunits = "µg/mL"
measvalue = 1.17

[[record]]
molecule = "N#CC1=C(N)Oc2c(cc(Cl)c3cccnc23)C1c1ccc(Cl)cc1Cl (stereo not drawn)"
valueunits = "µg/mL"
measvalue = 1.18

[[record]]
molecule = "N#CC1=C(N)Oc2c(cc(Cl)c3cccnc23)C1c1cccc(Cl)c1Cl (stereo not drawn)"
valueunits = "µg/mL"
measvalue = 2.47

[[record]]
molecule = "N#CC1=C(N)Oc2c(cc(Cl)c3cccnc23)C1c1cccc(Cl)c1 (stereo not drawn)"
valueunits = "µg/mL"
measvalue = 0.9

[[record]]
molecule = "Cc1ccc2ccc3c(c2n1)OC(N)=C(C#N)C3c1cccc(Cl)c1Cl (stereo not drawn)"
valueunits = "µg/mL"
measvalue = 1.24

[[record]]
molecule = "Cc1ccc2ccc3c(c2n1)OC(N)=C(C#N)C3c1cccc(Cl)c1 (stereo not drawn)"
valueunits = "µg/mL"
measvalue = 5.79

[[record]]
molecule = "N#CC1=C(N)Oc2c(ccc3cccnc23)C1c1cccc(Cl)c1 (stereo not drawn)"
valueunits = "µg/mL"
measvalue = 1.42


###

# reported pIC50; entries follow
# Test system: MCF7
# assayProtocol: Anticancer activity against human MCF7 cells assessed as reduction in cell growth incubated for 48 hrs by MTT assay
# Type: functional, cell-based
# runParameters: MCF7, 48 h
pIC50: −log10 of the molar value.
outcomeMeasure: pIC50

[[record]]
smilesentry = "COc1cccc(-n2nnc3c2-c2ccc4cccnc4c2OC3)c1"
outcomemeasure = "pIC50"
measvalue = 4.50

[[record]]
smilesentry = "Cc1cc(C)cc(-n2nnc3c2-c2ccc4cccnc4c2OC3)c1"
outcomemeasure = "pIC50"
measvalue = 4.77

